# Study system: human follicle-stimulating hormone receptor (FSHR) (Homo sapiens, UniProt P23945)
# Construct: host or cells: CHO-K1
# Measurement protocol: Measurement of agonist cAMP production by activation of human FSHR
# Format: cell-based
# Measurement context: CHO-K1 human FSHR cells, 30 minutes at 37° C., HTRF cAMP kit; read-out: hFSHR Agonist cAMP EC50
Catalogue of EC50 readings, one per entry.

>>> recorded_value("COc1cc2c(cc1-c1cccc(NC(=O)C[C@@H](N)C(=O)NC3CCN(C(=O)CN4CCN(CC(=O)O)CCN(CC(=O)O)CCN(CC(=O)O)CC4)CC3)c1)-c1c(c(C(=O)N3CCOCC3(C)C)nn1-c1cc(Cl)cc(Cl)c1)CO2")
"10 to 100 nM"

Below: the item to evaluate.
Ask: Give recorded EC50 with human follicle-stimulating hormone receptor (FSHR) (Homo sapiens, UniProt P23945) for the following compound: COc1cc2c(cc1-c1cncc(NCCOCCOCCOCCOCCNC(=O)[C@H](CS(=O)(=O)O)NC(=O)CN3CCN(CC(=O)O)CCN(CC(=O)O)CCN(CC(=O)O)CC3)c1)-c1c(c(C(=O)N3CCOCC3(C)C)nn1-c1cc(Cl)cc(Cl)c1)CO2
Result: < 10 nM

---

Catalogue of pEC50 readings, one per entry.
# Study system: human follicle-stimulating hormone receptor (FSHR) (Homo sapiens, UniProt P23945)
# Construct: host or cells: CHO-K1
# Measurement protocol: Measurement of agonist cAMP production by activation of human FSHR
# Type: cell-based
# Measurement context: CHO-K1 human FSHR cells, 30 minutes at 37° C., HTRF cAMP kit; read-out: hFSHR Agonist cAMP EC50
pEC50: −log10 of the molar value.

>>> recorded_value("COc1cc2c(cc1-c1cncc(NC(=O)CCNC(=O)[C@@H](CC(=O)O)NC(=O)[C@@H](CC(=O)O)NC(=O)CN3CCN(CC(=O)O)CCN(CC(=O)O)CCN(CC(=O)O)CC3)c1)-c1c(c(C(=O)N3CCOCC3(C)C)nn1-c1cc(Cl)cc(Cl)c1)CO2 [Compound 94]")
"7.00 to 8.00"

Ask: Suppose we examine the compound COc1cc2c(cc1-c1cccc(/C(C)=N/OCCNC(=O)CN3CCN(C(=O)CN4CCN(CC(=O)O)CCN(CC(=O)O)CCN(CC(=O)O)CC4)CC3)c1)-c1c(c(C(=O)N3CCOCC3(C)C)nn1-c1cc(Cl)cc(Cl)c1)CO2 [Compound 40] ; what pEC50 value has been reported?
Result: 7.00 to 8.00

---

# Study system: human follicle-stimulating hormone receptor (FSHR) (Homo sapiens)
# Construct: host or cells: CHO-K1
# Sequence (P23945 18-695): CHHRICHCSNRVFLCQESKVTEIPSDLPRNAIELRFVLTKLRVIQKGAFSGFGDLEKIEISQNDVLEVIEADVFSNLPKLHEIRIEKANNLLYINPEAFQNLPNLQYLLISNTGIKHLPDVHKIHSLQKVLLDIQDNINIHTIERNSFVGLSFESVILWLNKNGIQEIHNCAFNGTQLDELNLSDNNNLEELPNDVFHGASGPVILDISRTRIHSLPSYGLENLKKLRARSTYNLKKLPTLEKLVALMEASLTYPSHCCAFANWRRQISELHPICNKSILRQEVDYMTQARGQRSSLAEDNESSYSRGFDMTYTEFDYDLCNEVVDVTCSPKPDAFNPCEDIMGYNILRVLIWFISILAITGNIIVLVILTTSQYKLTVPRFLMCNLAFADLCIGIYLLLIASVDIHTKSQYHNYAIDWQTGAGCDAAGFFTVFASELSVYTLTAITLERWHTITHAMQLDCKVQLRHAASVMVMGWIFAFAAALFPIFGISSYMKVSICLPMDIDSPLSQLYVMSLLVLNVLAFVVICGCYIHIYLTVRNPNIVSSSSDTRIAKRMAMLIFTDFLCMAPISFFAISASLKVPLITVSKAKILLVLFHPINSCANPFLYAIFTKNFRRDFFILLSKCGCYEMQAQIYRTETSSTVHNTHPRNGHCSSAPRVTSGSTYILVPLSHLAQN
# Measurement protocol: Measurement of agonist cAMP production by activation of human FSHR
# Assay type: cell-based
# Measurement context: CHO-K1 human FSHR cells, 30 minutes at 37° C., HTRF cAMP kit; read-out: hFSHR Agonist cAMP EC50
# Method: Measurement of agonist cAMP production by activation of human FSHR Two days prior to the assay, 5,000 CHO—K1 human FSHR cells (Eurofins #95-0119C2) stably expressing the functional human follicle-stimulating hormone receptor were plated in a 96-well tissue culture-treated plate in growth media supplemented with the appropriate selection agent. […] The cells were incubated for 30 minutes at 37° C. […] The time-resolved fluorescent signal was read with a Tecan M1000Pro (Tecan) multiplate reader. […]
Starred links: 1 amine or outer side, 2 acyl side, 3 side chain; linkers in the order of their positions; H or OH if unused. Non-standard residues stand in square brackets, D forms with d. Residues, ends and D or L forms follow the SMILES beside them. Groups on a side chain read outwards from the residue. *: point of attachment. X1 = COc1cc2c(cc1-c1cccc(N*)c1)-c1c(c(C(=O)N3CCOCC3(C)C)nn1-c1cc(Cl)cc(Cl)c1)CO2; DOTA = O=C(O)CN1CCN(CC(=O)O)CCN(CC(=O)*)CCN(CC(=O)O)CC1; Suc = O=C(CCC(=O)[*:2])[*:1]
Value type: EC50

Answered cases to consult:
>>> recorded_value("COc1cc2c(cc1-c1cncc(COCCOCCOCCOCCNC(=O)[C@H](CS(=O)(=O)O)NC(=O)CN3CCN(CC(=O)O)CCN(CC(=O)O)CCN(CC(=O)O)CC3)c1)-c1c(c(C(=O)N3CCOCC3(C)C)nn1-c1cc(Cl)cc(Cl)c1)CO2")
"10 to 100 nM"
>>> recorded_value("COc1cc2c(cc1-c1cncc(NC(=O)CCOCCOCCNC(=O)C3OC(CNC(=O)CN4CCN(CC(=O)O)CCN(CC(=O)O)CCN(CC(=O)O)CC4)C(O)C(O)C3O)c1)-c1c(c(C(=O)N3CCOCC3(C)C)nn1-c1cc(Cl)cc(Cl)c1)CO2 (stereo not drawn)")
"< 10 nM"
>>> recorded_value("COc1cc2c(cc1-c1ccc(NC(=O)NCCOCCOCCOCCOCCOCCOCCNC(=O)CN3CCN(CC(=O)O)CCN(CC(=O)O)CCN(CC(=O)O)CC3)cc1)-c1c(c(C(=O)N(C)C(C)(C)C)nn1-c1cc(Cl)cc(Cl)c1)CO2 [Compound 5A]")
"< 10 nM"
>>> recorded_value("COc1cc2c(cc1-c1cccc(NC(=O)CCC(=O)N(CC(=O)O)C3CCN(C(=O)CN4CCN(CC(=O)O)CCN(CC(=O)O)CCN(CC(=O)O)CC4)CC3)c1)-c1c(c(C(=O)N3CCOCC3(C)C)nn1-c1cc(Cl)cc(Cl)c1)CO2")
"10 to 100 nM"
>>> recorded_value("COc1cc2c(cc1-c1cccc(NC(=O)CCOCC(COCCC(=O)O)(COCCC(=O)O)NC(=O)CN3CCN(CC(=O)O)CCN(CC(=O)O)CCN(CC(=O)O)CC3)c1)-c1c(c(C(=O)N3CCOCC3(C)C)nn1-c1cc(Cl)cc(Cl)c1)CO2")
"10 to 100 nM"
>>> recorded_value("COc1cc2c(cc1-c1cccc(NC(=O)CCOCCOCCOCCOCCOCCOCCNC(=O)CN3CCN(CC(=O)O)CCN(CC(=O)O)CCN(CC(=O)O)CC3)c1)-c1c(c(C(=O)N(C)C(C)(C)C)nn1-c1cc(Cl)cc(Cl)c1)CO2")
"< 10 nM"
>>> recorded_value("COc1cc2c(cc1-c1cccc(NC(=O)CCOCCOCCOCCOCCNC(=O)[C@@H](CS(=O)(=O)O)NC(=O)CN3CCN(CC(=O)O)CCN(CC(=O)O)CCN(CC(=O)O)CC3)c1)-c1c(c(C(=O)N3CCOCC3(C)C)nn1-c1cc(Cl)cc(Cl)c1)CO2")
"< 10 nM"
>>> recorded_value("COc1cc2c(cc1-c1cccc(NC(=O)C3OC(CNC(=O)CN4CCN(CC(=O)O)CCN(CC(=O)O)CCN(CC(=O)O)CC4)C(O)C(O)C3O)c1)-c1c(c(C(=O)N3CCOCC3(C)C)nn1-c1cc(Cl)cc(Cl)c1)CO2 (stereo not drawn)")
"10 to 100 nM"
>>> recorded_value("COc1cc2c(cc1-c1cccc(NC(=O)CCOCCOCCOCCN(CCOCCOCCOCCNC(=O)CN3CCN(CC(=O)O)CCN(CC(=O)O)CCN(CC(=O)O)CC3)CCOCCOCCOCCNC(=O)CN3CCN(CC(=O)O)CCN(CC(=O)O)CCN(CC(=O)O)CC3)c1)-c1c(c(C(=O)N3CCOCC3(C)C)nn1-c1cc(Cl)cc(Cl)c1)CO2")
"10 to 100 nM"
>>> recorded_value("COc1cc2c(cc1-c1cccc(NC(=O)CCC(=O)NCCCC[C@@H](NC(=O)[C@@H](CCC(=O)O)NC(=O)[C@@H](CCCNC(=N)N)NC(=O)[C@@H](C)NC(=O)CN3CCN(CC(=O)O)CCN(CC(=O)O)CCN(CC(=O)O)CC3)C(=O)N[C@H](CCCNC(=N)N)C(=O)N[C@H](CCC(=O)O)C(=O)N[C@H](C)C(N)=O)c1)-c1c(c(C(=O)N3CCOCC3(C)C)nn1-c1cc(Cl)cc(Cl)c1)CO2 [Compound 83] ({DOTA}-[dA][dR][dE][dK]([Suc-X1])[dR][dE][dA]-NH2)")
"10 to 100 nM"

Ask: Suppose we examine the molecule COc1cc2c(cc1-c1cccc(NC(=O)CCC(=O)NCCCC[C@@H](NC(=O)[C@@H](CC(=O)O)NC(=O)[C@@H](CC(=O)O)NC(=O)CCNC(=O)CN3CCN(CC(=O)O)CCN(CC(=O)O)CCN(CC(=O)O)CC3)C(N)=O)c1)-c1c(c(C(=O)N3CCOCC3(C)C)nn1-c1cc(Cl)cc(Cl)c1)CO2 ; what EC50 value has been reported?
Result: < 10 nM

Ask: Entry COc1cc2c(cc1-c1cccc(NC(=O)CCOCCOCCOCCOCCOCCOCCNC(=O)CN3CCN(CC(=O)O)CCN(CC(=O)O)CCN(CC(=O)O)CC3)c1)-c1c(c(C(=O)N3CCOCC3(C)C)nn1-c1cc(Cl)cc(Cl)c1)CO2 [Compound 16A] please
Result: < 10 nM

Ask: Entry COc1cc2c(cc1-c1cncc(NC(=O)CNC(=O)CC[C@@H](NC(=O)CNC(=O)CN3CCN(CC(=O)O)CCN(CC(=O)O)CCN(CC(=O)O)CC3)C(=O)O)c1)-c1c(c(C(=O)N3CCOCC3(C)C)nn1-c1cc(Cl)cc(Cl)c1)CO2 please
Result: 10 to 100 nM

Ask: Entry COc1cc2c(cc1-c1cncc(NC(=O)CNC(=O)[C@H](CCC(=O)NC[C@H](O)[C@@H](O)[C@H](O)[C@H](O)CO)NC(=O)CN3CCN(CC(=O)O)CCN(CC(=O)O)CCN(CC(=O)O)CC3)c1)-c1c(c(C(=O)N3CCOCC3(C)C)nn1-c1cc(Cl)cc(Cl)c1)CO2 please
Result: 10 to 100 nM

Ask: Entry COc1cc2c(cc1-c1cccc(NC(=O)CCNC(=O)CN3CCC(NC(=O)CN4CCN(CC(=O)O)CCN(CC(=O)O)CCN(CC(=O)O)CC4)CC3)c1)-c1c(c(C(=O)N3CCOCC3(C)C)nn1-c1cc(Cl)cc(Cl)c1)CO2 please
Result: < 10 nM
